Target entity: T1, TNFR1 (Homo sapiens, UniProt P19438)
T1 chain: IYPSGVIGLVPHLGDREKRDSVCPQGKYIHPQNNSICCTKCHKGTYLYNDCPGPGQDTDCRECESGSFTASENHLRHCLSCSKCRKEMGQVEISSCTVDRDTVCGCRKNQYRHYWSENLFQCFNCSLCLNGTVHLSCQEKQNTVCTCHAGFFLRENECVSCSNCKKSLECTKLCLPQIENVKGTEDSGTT
Assay remarks: yeast display SC50
Endpoint: apparent Kd (screen) (nM)

| Binder | Unit annotation | apparent Kd (screen) |
| --- | --- | --- |
| Y50L (designed binder) SMEEEVEKAAKEYEKKKKEAIEKHLEKLKAKDKEAAERFLKELEEAAKELAKDEAKTMSEEEAKRRAKKYKEKVLLSELSEEEQKEIKEAEEKLVRTILKYVEEAAK | nM | 0.79 |

(1) E45K (designed binder) SMEEEVEKAAKEYEKKKKEAIEKHLEKLKAKDKEAAERFLKELEKAAKEYAKDEAKTMSEEEAKRRAKKYKEKVLLSELSEEEQKEIKEAEEKLVRTILKYVEEAAK
(2) Y101W (designed binder) SMEEEVEKAAKEYEKKKKEAIEKHLEKLKAKDKEAAERFLKELEEAAKEYAKDEAKTMSEEEAKRRAKKYKEKVLLSELSEEEQKEIKEAEEKLVRTILKWVEEAAK
(3) K29L (designed binder) SMEEEVEKAAKEYEKKKKEAIEKHLEKLLAKDKEAAERFLKELEEAAKEYAKDEAKTMSEEEAKRRAKKYKEKVLLSELSEEEQKEIKEAEEKLVRTILKYVEEAAK
input: Highest apparent Kd (screen) first, then in falling order down to the smallest. Use the labels to give the requested order.
output: 1, 2, 3
